So I've got a bunch of compounds here, and I need their viability, T/C values.
# Tested on: 485176-168-R4-J1-PDC complex spheroid growth;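 also: spheroids exposed to compounds for seven days before readout; luminescence viability expressed relative to DMSO vehicle wells set as 100%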
# EXPERIMENT_DESCRIPTION: Anticancer human tumor 485176-168-R4-J1-PDC patient-derived pancreatic adenocarcinoma cell line growth inhibition [RAS]
# PROTOCOL_CONDITIONS: second compound 0.0316 µM; first compound 0.1 µM; hits give low values
Give bare numbers, in %.

INSERT INTO results (compound, quantity_measured, val) VALUES
  ('CC1(O)CCCC1n1c(=O)c(C(F)F)cc2cnc(NC3CCN(S(C)(=O)=O)CC3)nc21 (stereo unspecified) + C=CC(=O)N1CCN(c2nc(OCC3CCCN3C)nc3c(F)c(-c4nc(N)cc(C)c4C(F)(F)F)c(Cl)cc23)C(C)C1', 'viability, T/C', 81.6),
  ('CC(=O)OC12COC1CC(O)C1(C)C(=O)C(O)C3=C(C)C(OC(=O)C(O)C(NC(=O)OC(C)(C)C)c4ccccc4)CC(O)(C(OC(=O)c4ccccc4)C21)C3(C)C (stereo unspecified) + C=CC(=O)N1CCN(c2nc(OCC3CCCN3C)nc3c(F)c(-c4nc(N)cc(C)c4C(F)(F)F)c(Cl)cc23)C(C)C1', 'viability, T/C', 13.6),
  ('O=C(c1ccc(F)c(F)c1Nc1ccc(I)cc1F)N1CC(O)([C@@H]2CCCCN2)C1 + C#Cc1c(F)ccc2cc(O)cc(-c3ncc4c(N5CC6CCC(C5)N6)nc(OCC56CCCN5CC(F)C6)nc4c3F)c12', 'viability, T/C', 72.4),
  ('O=C(c1ccc(F)c(F)c1Nc1ccc(I)cc1F)N1CC(O)([C@@H]2CCCCN2)C1 + C=CC(=O)N1CCN(c2nc(OCC3CCCN3C)nc3c(F)c(-c4nc(N)cc(C)c4C(F)(F)F)c(Cl)cc23)C(C)C1', 'viability, T/C', 55.5),
  ('CC(C)n1nc(-c2ccc3oc(N)nc3c2)c2c(N)ncnc21 + C#Cc1c(F)ccc2cc(O)cc(-c3ncc4c(N5CC6CCC(C5)N6)nc(OCC56CCCN5CC(F)C6)nc4c3F)c12', 'viability, T/C', 19.8),
  ('NC1c2ccccc2OC12CCN(c1cnc3c(N4CCCc5ncccc54)n[nH]c3n1)CC2 (stereo unspecified) + C=CC(=O)N1CCN(c2nc(OCC3CCCN3C)nc3c(F)c(-c4nc(N)cc(C)c4C(F)(F)F)c(Cl)cc23)C(C)C1', 'viability, T/C', 66.2),
  ('CC1(O)CCCC1n1c(=O)c(C(F)F)cc2cnc(NC3CCN(S(C)(=O)=O)CC3)nc21 (stereo unspecified) + C#Cc1c(F)ccc2cc(O)cc(-c3ncc4c(N5CC6CCC(C5)N6)nc(OCC56CCCN5CC(F)C6)nc4c3F)c12', 'viability, T/C', 66.2),
  ('C=CC(=O)Nc1cc(Nc2nccc(-c3cn(C)c4ccccc34)n2)c(OC)cc1N(C)CCN(C)C + C#Cc1c(F)ccc2cc(O)cc(-c3ncc4c(N5CC6CCC(C5)N6)nc(OCC56CCCN5CC(F)C6)nc4c3F)c12', 'viability, T/C', 80.7),
  ('CCN1CCN(Cc2ccc(Nc3ncc(F)c(-c4cc(F)c5nc(C)n(C(C)C)c5c4)n3)nc2)CC1 + C#Cc1c(F)ccc2cc(O)cc(-c3ncc4c(N5CC6CCC(C5)N6)nc(OCC56CCCN5CC(F)C6)nc4c3F)c12', 'viability, T/C', 100),
  ('C[C@@H](NC(=O)c1ncnc(N)c1Cl)c1ncc(C(=O)Nc2cc(C(F)(F)F)c(Cl)cn2)s1 + C=CC(=O)N1CCN(c2nc(OCC3CCCN3C)nc3c(F)c(-c4nc(N)cc(C)c4C(F)(F)F)c(Cl)cc23)C(C)C1', 'viability, T/C', 98.4);

Next:
**Query** Which value of viability, T/C has been reported for CCC(CC)c1cc(NC2CCC(N)C2)n2nccc2n1 (stereo unspecified) + C=CC(=O)N1CCN(c2nc(OCC3CCCN3C)nc3c(F)c(-c4nc(N)cc(C)c4C(F)(F)F)c(Cl)cc23)C(C)C1 in the records?
**Result** 103

These entries and their values trace back to PubChem BioAssay AID2060906.
